B1: HDV Ribozyme (parent)
chain: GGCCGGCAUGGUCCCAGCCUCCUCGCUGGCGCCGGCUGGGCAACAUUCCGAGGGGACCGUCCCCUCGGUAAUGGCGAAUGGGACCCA

Variants of: B1
method description: self-cleavage, relative activity (ratio to wild type); higher = more cleavage; co-transcriptional
Param threshold (0.5) applies to self-cleavage; output satisfied when value >= threshold, not satisfied when value < threshold.

// below: answered variants
sequence	label class
GGCCGGCAUGGUCCCAGCCUCCUCGCUGGCGCCGGCUGGGCAACAUUCCCAGGGGACCGUUCCCUCGGUAAUGGCGAAUGGGACCCA	satisfied
GGCCGGCAUGGUCCCAGCCUCCUCGCUGGCGCCGGCUGGGCCACAAUCCGAGGGGACCGUCCCCUCGGUAAUGGCGAAUGGGACCCA	not satisfied
GGCCGGCAUGGUCCCAGCUUCCUCGCUGGCGCCGGCUGGGCAACAUUCCGAGGGGACGGUCCCCUCGGUAAUGGCGAAUGGGACCCA	not satisfied
GGCCGGCAUGGUCCCAGCCUCCUCGCUGGCGCCGGCUGGGUAACAUUCCGAGCGGACCGUCCCCUCGGUAAUGGCGAAUGGGACCCA	satisfied
GGCCGGCAUGGACCCAGCCUCCUCGCUGGCGCCGGCUGGGCAACAUUCCGAGGGGUCCGUCCCCUCGGUAAUGGCGAAUGGGACCCA	not satisfied

# input Item GGCCGGCAUGGUCCCAGCCUCCUCGCUGGCGCCGGCAGGGCAACAUUCCGAGGGGACCGUCCCCUCGGUAAUCGCGAAUGGGACCCA with self-cleavage of 0.5 or above?
# output not satisfied

# input State whether the measured self-cleavage reaches 0.5, counting equality as reaching it, for GGCCGGCAUGGUGCCAGCCUCCUCGCUGGCGCCGGCUGGGCAACAUUCCGAGGGGAUCGUCCCCUCGGUAAUGGCGAAUGGGACCCA
# output not satisfied

# input Has GGCCGGCAUGGUCCCAGCCUCCUCGCUGGCGCCGGCUGGGCAACAUUCCGGGGGGACCGUCCCCUCGGUAAUGGCGAAUGGGGCCCA a recorded self-cleavage greater than or equal to 0.5?
# output satisfied

# input Determine whether this variant has self-cleavage no lower than 0.5: UGCCGGCAUGGUCCCAGCCUCCUCGCUGGCGCCGGCUGGGCAACAUUCCGAGGGGACCGUCCCCUCGGUGAUGGCGAAUGGGACCCA
# output satisfied

# input Item GGCCGGCAUGGUCCCAGCCUCCUCGGCGGCGCCGGCUGGGCAACAUUCCGAGGGGACCGUCCCCUCGGUAAUGGCGAAUGGGACCCA with self-cleavage of 0.5 or above?
# output satisfied
